# System: HCT-116
# Assay comment: NCI tumour cell line growth inhibition, 48 h
The source made the active and inactive calls. No stated cut-off is given here; in the data, active = GI50 up to about 1.1 µM and inactive = higher.
Outcomes: 1.0 for active, 0.0 for inactive

Compound	Group label
CCOC(=O)C1=C(C)N(c2ccccc2)C2=C(C(=O)N(c3ccccc3)C2c2ccccc2)C1c1ccccc1 (centres undefined)	0.0
Cc1cn(C2OC(CO[Si](C)(C)C(C)(C)C)/C(=C\C#N)C2O[Si](C)(C)C(C)(C)C)c(=O)[nH]c1=O (centres undefined)	0.0
CC(=O)N1c2ccccc2C2=NN(C)C(=N)SC21 (centres undefined)	0.0
COc1cc(C23OCC(Cc4cc5c(cc42)OCO5)C3CO)cc(OC)c1OC (centres undefined)	0.0
CCOc1ncn(-c2ccc(NC(=S)Nc3ncccn3)cc2)n1	0.0
CCOC(=O)Cc1cc(OC)c(OC)cc1/C(Cl)=C(\C=O)c1ccc(OC)c(OC)c1	0.0
CCOC(=O)NC(Nc1ncccn1)(C(F)(F)F)C(F)(F)F	0.0
CC(=O)OC1CC[C@@]2(C)C(CC[C@]3(C)C2CC=C2[C@@H]4CC(C)(C)CCC4(C)CCC23C)[C@@]1(C)C(=O)O (some centres undefined)	0.0
O=C1C=CC(CC(=O)c2ccc3ccccc3c2)O1 (centres undefined)	0.0
N=C(NC(=S)N1CCCCC1)N1CCCCC1	0.0
CC1=C[C@@H](C)C[C@]2(C)CC[C@H](O2)[C@]23CC[C@](CO)(C[C@H](O2)[C@@H]2O[C@@](C)(CC2=O)[C@@H](O)[C@H]2CC[C@@]4(CCC[C@@H](O4)[C@H](C)C(=O)O[C@H]4C[C@H]([C@]5(O)OCC[C@H](C)[C@@H]5O)O[C@H]4C=C1)O2)O3	1.0
O=C1/C(=C/c2cccc3ccccc23)CCc2ccc([N+](=O)[O-])cc21	0.0
CN(C)S(=O)(=O)n1ccnc1	0.0
O=C1NC(=O)[C@H]2C3C=CC([C@@H]12)[C@@H]1C(=O)NC(=O)[C@H]31	0.0
CCCOC(=O)NC(C)C(=O)NC(CCC(=O)NC(CCCC(N)C(=O)O)C(=O)NC(C)C(=O)O)C(=O)O (centres undefined)	0.0
COc1ccc(-c2nc3cc(C(F)(F)F)ccc3n2CC2CCCN3CCCCC23)cc1 (centres undefined)	0.0
C=C(C)[C@H](O)C(O)CC(C)[C@@H]1CCC23CC12CCC1[C@@]2(C)CCC(OC(C)=O)C(C)(C)C2CC(OC2OC(COC(C)=O)C(O)C(O)C2O)[C@]13C (some centres undefined)	0.0
CCOP1(=O)C=C(C)C(Cl)=C(C)C1 (centres undefined)	0.0
Nc1nc2ncn(CCO)c2c(=S)[nH]1	0.0

====

# Tested on: MCF7
# Assay comment: NCI tumour cell line growth inhibition, 48 h
Calls of active or inactive are those of the source. Rule as the data show it: active = GI50 up to about 1.1 µM and inactive = higher.

Compound	GI50
O=C(N/C(=C\NC1=NCCS1)C(=O)N1CSC[C@@H]1C(=O)O)c1ccccc1	> 100 µM (inactive)
CC(=O)OC1CC[C@@]2(C)C(CC[C@]3(C)C2CC=C2[C@@H]4CC(C)(C)CCC4(C)CCC23C)[C@@]1(C)C(=O)O (some centres undefined)	14.9 µM (inactive)
CC(=O)Oc1ccc2c(c1)Oc1cc(C(C)=O)ccc1C21OC(=O)c2ccccc21 (centres undefined)	> 100 µM (inactive)
CCOc1ccc(N/C(Cl)=C(Cl)\C(=C(\Nc2ccc(OCC)cc2)n2nnc3ccccc32)[N+](=O)[O-])cc1	5.89 µM (inactive)
CCP(=O)(CC)C(Cl)(Cl)C(O)C(Cl)(Cl)Cl (centres undefined)	> 100 µM (inactive)
Cn1cnc2c(NCc3ccccc3)nc(NCCO)nc21 [OLOMOUCINE]	39.7 µM (inactive)
O=C(/C=C/c1ccc(O)c(O)c1)c1ccc(O)cc1O [BUTEIN]	3.98 µM (inactive)
COC(=O)[C@H]1CO[C@@H](C(C)(C)C)N1C(=O)N1C=CC(=O)C[C@@H]1C	> 100 µM (inactive)
CC(=O)Nc1ccc2c(c1)C(=O)c1cccc(F)c1-2	4.33 µM (inactive)
